Tested on: ATP;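 further: ATP exposure 15 min at 22 °C before imaging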
Test: switch fluorescence ratio, 500 uM ATP over buffer (Cy3 cluster intensity, sum of 5 cycles each) (fold (ratio)); higher = stronger signal-on switching upon ATP binding; sequences stand for … in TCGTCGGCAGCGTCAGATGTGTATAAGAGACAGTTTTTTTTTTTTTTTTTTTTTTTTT…TC
Conditions: aptamer strand: ATP DNA aptamer (quencher-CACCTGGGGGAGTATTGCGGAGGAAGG + anchor), 100 nM annealed; ATP concentration: 500 uM
I'd appreciate it if you could supply switch fluorescence ratio values for the items below.
Respond numerically, and do not add a unit to the figure.

Given the sequence ACGTGACCCA , what is its reported switch fluorescence ratio?
1.35

Given the sequence CGAGGGTACG , what is its reported switch fluorescence ratio?
1

Given the sequence TAATTGCCTT , what is its reported switch fluorescence ratio?
1.02

Given the sequence GGGTGTAGCC , what is its reported switch fluorescence ratio?
1.04

Given the sequence ATATAAGGGC , what is its reported switch fluorescence ratio?
1

Given the sequence CTAGGTGGGG , what is its reported switch fluorescence ratio?
1.02

Given the sequence GGTTTGTAAC , what is its reported switch fluorescence ratio?
0.978

Given the sequence CGAAGTCGTC , what is its reported switch fluorescence ratio?
1.02

Given the sequence TTATGTAGTA , what is its reported switch fluorescence ratio?
1

Given the sequence TACGTAACAG , what is its reported switch fluorescence ratio?
1.24

Given the sequence AGTTTTTGAT , what is its reported switch fluorescence ratio?
0.969

Given the sequence TTGAGAGGGT , what is its reported switch fluorescence ratio?
0.986

Given the sequence TGGTTTTGTG , what is its reported switch fluorescence ratio?
0.986

Given the sequence AATACTGAGC , what is its reported switch fluorescence ratio?
1.04

Given the sequence TTAGGTACGA , what is its reported switch fluorescence ratio?
1.05

Given the sequence GTCGGGGGG , what is its reported switch fluorescence ratio?
1.01

Given the sequence AGCTGGGGTA , what is its reported switch fluorescence ratio?
0.951

Given the sequence TGCGCTTATA , what is its reported switch fluorescence ratio?
1.09

Given the sequence ATGATTACGC , what is its reported switch fluorescence ratio?
1.06

Given the sequence AGTGATGTGT , what is its reported switch fluorescence ratio?
1

Given the sequence TCCCTGGTAT , what is its reported switch fluorescence ratio?
1.04

Given the sequence ATCAGTGATG , what is its reported switch fluorescence ratio?
1

Given the sequence TTAAGGGCTC , what is its reported switch fluorescence ratio?
1

Given the sequence AAAGGCGAGG , what is its reported switch fluorescence ratio?
0.957

Given the sequence CTGGGTAGGG , what is its reported switch fluorescence ratio?
1.01

Given the sequence CAGTGATTAT , what is its reported switch fluorescence ratio?
1.01

Given the sequence TTATTGTTTA , what is its reported switch fluorescence ratio?
0.99

Given the sequence TGAGCTGCGT , what is its reported switch fluorescence ratio?
1.01

Given the sequence GGTTGTGACG , what is its reported switch fluorescence ratio?
1

Given the sequence TCCGGTTCCT , what is its reported switch fluorescence ratio?
1.07

Given the sequence GGAAGTTAGA , what is its reported switch fluorescence ratio?
0.982

Given the sequence CAGGTGGGGG , what is its reported switch fluorescence ratio?
1.01

Given the sequence TTGATGGGGT , what is its reported switch fluorescence ratio?
1.03

Given the sequence ATTTTGCCGG , what is its reported switch fluorescence ratio?
0.965

Given the sequence CATACGGGGT , what is its reported switch fluorescence ratio?
1.01

Given the sequence TCTATAGTTC , what is its reported switch fluorescence ratio?
1.01

Given the sequence AAGTTTGAGT , what is its reported switch fluorescence ratio?
0.982

Given the sequence ACTTACGGTT , what is its reported switch fluorescence ratio?
1.32

Given the sequence ATTTAGCGTC , what is its reported switch fluorescence ratio?
0.99

Given the sequence TTGTTAGATT , what is its reported switch fluorescence ratio?
0.994

Given the sequence GGTGTAGCGA , what is its reported switch fluorescence ratio?
1.03

Given the sequence TAGTCATGCG , what is its reported switch fluorescence ratio?
1.04

Given the sequence TATTGCGGTC , what is its reported switch fluorescence ratio?
1
